Source listed as PubChem BioAssay (NCI).

experiment: NCI Yeast Anticancer Drug Screen. Data for the bub3 strain (AID 167); settings: S. cerevisiae bub3 mutant strain, at 50.0 µM, active compounds read high
Compounds without any hit were thinned out: in the full panel of roughly 79,000, 15% have a hit.
# label = class 1 if growth inhibition >= 90% else class 0

molecule=O=C(/C=C/c1ccc([N+](=O)[O-])o1)N1CCN(Cc2ccccc2)CC1 classification="class 0"
molecule=COc1cccc(C=Nc2ccc(I)cc2)c1O.COc1cccc(C=Nc2ccc(I)cc2)c1O.[Co] classification="class 0"
molecule="O=C1OC(CCl)CC12CC(CCl)OC2=O (stereo unspecified)" classification="class 1"
molecule=Cc1ccc(C)c2[nH]c(-c3ccccc3)cc12 classification="class 1"
molecule=ICCCCSc1cc(-c2ccccc2)[o+]c2ccccc12 classification="class 0"
molecule=ICCCCCCCCCC[n+]1ccc2ccccc2c1 classification="class 1"
molecule=CN(C(=O)C(Cl)Cl)c1ccc(-c2csc(-c3ccccc3)n2)cc1 classification="class 1"
molecule="CC(Cc1ccccc1)NNC(C)Cc1ccccc1 (stereo unspecified)" classification="class 1"
molecule="COc1ccc2c(c1)C=C([N+](=O)[O-])C(C1OC(C)(C)OC1C1COC(C)(C)O1)O2 (stereo unspecified)" classification="class 0"
molecule="Cc1c(O)c(Br)c(C)c(O)c1Br (tested in a mixture with another compound)" classification="class 0"
molecule=CCCCOC(=O)c1ccc(O)c(OC)c1 classification="class 1"

* * *

experiment: NCI Yeast Anticancer Drug Screen. Data for the cln2 rad14 strain (AID 165);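 note: 0% = growth equal to vehicle treated cultures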; conditions: S. cerevisiae cln2 rad14 strain, at 5.0 µM (retest, dose inferred, filed as 0.5), active compounds read high
The panel holds about 79,000 compounds, 15% with a hit somewhere; the sample as a whole holds those more often.
# label = YES if growth inhibition >= 10% else NO

compound=O=c1nc(-c2ccccc2)cc(-c2ccccc2O)[nH]1 classification=YES
compound=Cc1ccc(O)c(C(c2cc(C)ccc2O)c2ccccc2Cl)c1 classification=YES
compound=Oc1cc(F)ccc1-c1ccc(F)cc1 classification=NO
compound=CC(C)c1ccc(C(C)C)c(O)c1O classification=YES
compound=Cc1ccsc1/C=N/Nc1cc(C)c2cccc(C)c2n1 classification=NO
compound=C=C(Br)CN(C)CC(=C)Br classification=NO
compound=CCCCCCCCCCC[n+]1ccc(C#N)cc1 classification=YES
compound=O=c1c2cc(Br)ccc2ncn1COCc1ccccc1 classification=YES
compound="CCCCC(CSC#N)SC#N (stereo not drawn)" classification=NO
compound=CC(=O)Nc1ccc(O)c(=O)cc1 classification=YES
compound="CCCCCCC1CCC(CCCCCCCC(=O)N2CCN(C)CC2)C(C/C=C/CCCCCCCC(=O)N2CCN(C)CC2)C1CCCCC (stereo not drawn)" classification=NO
compound=CCCC(c1ccc(O)cc1)c1ccc(O)cc1 classification=YES
compound=COc1ccc2c(c1)c(=O)c1c(NCCN(C)C)ccc3nnn2c31 classification=NO

* * *

assay: NCI Yeast Anticancer Drug Screen. Data for the rad50 strain (AID 155);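 note: 0% = growth of vehicle-only cultures of the same strain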; details: S. cerevisiae rad50 strain growth inhibition; at 50.0 µM
About 79,000 compounds went through this panel and 15% of them were active in at least one assay; those are over-represented in the sample as a whole. Calls of active or inactive are those of the source. Cut-off read from the data, not from the text of the source: active = growth inhibition above about 70%; inactive = the rest.
Labels: active, inactive

molecule="COc1cc(C(c2cc3c(cc2O)OCO3)N2CCN(C(c3cc(OC)c(OC)c(OC)c3)c3cc4c(cc3O)OCO4)CC2)cc(OC)c1OC (stereo not given)" classification=inactive
molecule="CC(=O)Nc1ccc(C(=O)NN2C(=O)C(Cl)C2c2cc(Br)cc(Br)c2O)cc1 (stereo not given)" classification=inactive
molecule=CCOC(=O)NC(NNc1ccc([N+](=O)[O-])cc1[N+](=O)[O-])(C(F)(F)F)C(F)(F)F classification=active
molecule=O=C1CCCC/C1=C/c1ccc(Cl)cc1 classification=active
molecule=O=C(/C(=C\I)c1ccccc1)c1ccccc1 classification=active

* * *

Entries and their growth inhibition values follow.
experiment: NCI Yeast Anticancer Drug Screen. Data for the cln2 rad14 strain (AID 165);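 note: 0% = growth equal to vehicle treated cultures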; details: S. cerevisiae cln2 rad14 strain, at 50.0 µM, active compounds read high
The panel holds about 79,000 compounds, 15% with a hit somewhere; the sample as a whole holds those more often.
measured-endpoint: growth inhibition (%)

molecule=CCC[CH2][Sn]([S][Sn]([CH2]CCC)([c]1ccccc1)[c]1ccccc1)([c]1ccccc1)[c]1ccccc1 unit_of_measurement=% readout_value=98
molecule="COC([C@@H](OC(=O)c1ccccc1)[C@H](OC(=O)c1ccccc1)C(O)COC(=O)c1ccccc1)n1cc(C)c(=O)[nH]c1=O (some centres not stated)" unit_of_measurement=% readout_value=53.5
molecule=Cn1c2nc(-[n+]3ccc(-c4ccccc4)cc3)nc-2c([O-])n(C)c1=O unit_of_measurement=% readout_value=72.3
molecule=CN(C)Cc1ccc2[nH]c3c(c2c1)CCCC3 unit_of_measurement=% readout_value=21.2
molecule=CCCCCCCCCCCCCCCCCCSSCCCCCCCCCCCCCCCCCC unit_of_measurement=% readout_value=80.9
molecule=CC(/C=C/c1ccc(Cl)cc1)=N\NC(N)=S unit_of_measurement=% readout_value=47.1
molecule="CNC(=O)OC1/C(C)=C\\C(C)C(O)C(OC)CC(C)CC2=C(OC)C(=O)C=C(C2=O)N(C)C(=O)/C(C)=C/C=C\\C1OC (configuration not stated)" unit_of_measurement=% readout_value=50
molecule=COc1ccc2c(c1)nc1ccc(Cl)cc1[n+]2C unit_of_measurement=% readout_value=83.1
molecule=Nc1ccc(-c2nc3ccccc3s2)cc1 unit_of_measurement=% readout_value=87.6
molecule=O=C(O)CSC(=S)N1CCCC1 unit_of_measurement=% readout_value=-40.7
molecule="O=S(=O)(CC(Br)CCl)c1ccccc1 (configuration not stated)" unit_of_measurement=% readout_value=-62.6
molecule="CCCCCCCCCCCCCCCCCC[n+]1ccc(C(C)CC)cc1 (configuration not stated)" unit_of_measurement=% readout_value=99.1
molecule="CCOC(=O)C1=NNC(C(=O)c2ccccc2)C1c1ccccc1 (configuration not stated)" unit_of_measurement=% readout_value=-20.3
molecule="CC(OC(=O)Nc1cccc(Cl)c1)c1ccccc1 (configuration not stated)" unit_of_measurement=% readout_value=99
molecule="CNC1C(O)C(NC)C2OC3(O)C(=O)CC(C)OC3OC2C1O (configuration not stated)" unit_of_measurement=% readout_value=83.7
molecule=CCCCCN(CCCCC)CCNc1ccc(C)c2sc3ccccc3c(=O)c12 unit_of_measurement=% readout_value=95.7
molecule=COC1=C(NC(C)=O)C(=O)c2nc(-c3nc(C(=O)O)c(C)c(-c4ccc(OC)c(OC)c4O)c3N)ccc2C1=O unit_of_measurement=% readout_value=57.1
molecule=CN(C)C(=O)Nc1ccc(Cc2ccc(NC(=O)N(C)C)cc2)cc1 unit_of_measurement=% readout_value=3.65
molecule="O=C(Nc1cccc2ccccc12)OCC1CCc2ccccc2C1 (configuration not stated)" unit_of_measurement=% readout_value=9.25
molecule=CC(C)N(CCOc1ccc(/C=C/c2ccccc2)cc1)C(C)C unit_of_measurement=% readout_value=8.5
molecule=CCOC(=O)C(=N\Nc1cccc(C)c1C)/C(C)=N\NC(N)=S unit_of_measurement=% readout_value=64.1
molecule="CN(C)c1nc(Cl)nc2c1ncn2C1OCC(O)C(O)C1O (configuration not stated)" unit_of_measurement=% readout_value=1.25

* * *

assay: NCI Yeast Anticancer Drug Screen. Data for the mlh1 rad18 strain (AID 175); settings: S. cerevisiae mlh1 rad18 strain growth inhibition; at 50.0 µM (retest, dose inferred, filed as 5.0); active compounds read high
This is part of a sample that, as a whole, favours compounds with a hit. Of some 79,000 tested, about 15% had one in any assay.
# label = Fulfilled if growth inhibition >= 60% else Not fulfilled

molecule=COc1cc[c]([Sn]([O][Sn]([Cl])([c]2ccc(OC)cc2)[c]2ccc(OC)cc2)[c]2ccc(OC)cc2)cc1 classification=Fulfilled
molecule=CCCCCCCCCCOC(=O)Nc1ccc(C)c(NC(=O)OCCCCCCCCCC)c1 classification="Not fulfilled"
molecule="O=C(c1ccc(Cl)cc1)C1OC12C(=O)Nc1c(Cl)cc(Cl)cc12 (stereo not given)" classification=Fulfilled
molecule="CCCC(CC)c1cc(O)c(O)cc1C(CC)CCC (stereo not given)" classification=Fulfilled
molecule=O=Cc1[nH]c(=S)[nH]c(=O)c1CCCc1ccccc1 classification=Fulfilled

* * *

test: NCI Yeast Anticancer Drug Screen. Data for the mec2-1 strain (AID 157); conditions: S. cerevisiae mec2-1 strain, at 50.0 µM (retest, dose inferred, filed as 5.0), active compounds read high
About 79,000 compounds went through this panel and 15% of them were active in at least one assay; those are over-represented in the sample as a whole.
measured-endpoint: growth inhibition (%)

molecule=Nc1c(-c2ccc(Cl)cc2)[n+]([O-])c2ccccc2[n+]1[O-] measured_endpoint="growth inhibition" unit_of_measurement=% readout_value=-10
molecule=COC(=O)/C(C(C)=O)=C(\OC(C)=O)c1ccc(OC)c(OC)c1 measured_endpoint="growth inhibition" unit_of_measurement=% readout_value=93
molecule=O=C1C(=O)c2ccc(Br)cc2C(O)=C1C(c1ccccc1)c1ccccc1 measured_endpoint="growth inhibition" unit_of_measurement=% readout_value=70
molecule=C(=C1/CNC/C(=C/c2ccccc2)C1)/c1ccccc1 measured_endpoint="growth inhibition" unit_of_measurement=% readout_value=99
molecule=CCC[n+]1ccc(/C=N\NC(N)=S)c2ccccc21 measured_endpoint="growth inhibition" unit_of_measurement=% readout_value=36
molecule="CC(=O)OCCC1=CCC2CC1C2(C)C (stereo unspecified)" measured_endpoint="growth inhibition" unit_of_measurement=% readout_value=4
